These data points were gathered from patent US20230012273A1.

targetSystem: T1, full-length human SIRPγ EN→DD on Expi-CHO cells (human, UniProt Q9P1W8 29-387)
T1 construct: the entry already carries the change (PENV to PDDV)
T1 chain: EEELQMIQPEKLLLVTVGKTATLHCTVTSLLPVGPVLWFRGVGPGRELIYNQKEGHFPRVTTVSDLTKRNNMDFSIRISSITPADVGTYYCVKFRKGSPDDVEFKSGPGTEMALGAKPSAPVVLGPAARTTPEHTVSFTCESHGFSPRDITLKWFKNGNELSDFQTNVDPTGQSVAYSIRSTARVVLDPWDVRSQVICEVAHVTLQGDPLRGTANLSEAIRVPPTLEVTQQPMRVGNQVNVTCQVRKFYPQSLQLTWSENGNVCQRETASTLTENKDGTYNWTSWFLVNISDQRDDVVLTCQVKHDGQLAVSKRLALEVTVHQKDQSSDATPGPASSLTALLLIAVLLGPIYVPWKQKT
procedureDetails: flow cytometry, Expi-CHO cells
Below, each entry is listed alongside its reported EC50.
readoutName: EC50 (nM)

binder="Antibody B (antibody, human IgG1, kappa, L234A L235A, V domains shown) VH: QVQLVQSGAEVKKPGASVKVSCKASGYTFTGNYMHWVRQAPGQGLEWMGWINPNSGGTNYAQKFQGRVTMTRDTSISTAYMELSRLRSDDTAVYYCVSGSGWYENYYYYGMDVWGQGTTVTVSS VL: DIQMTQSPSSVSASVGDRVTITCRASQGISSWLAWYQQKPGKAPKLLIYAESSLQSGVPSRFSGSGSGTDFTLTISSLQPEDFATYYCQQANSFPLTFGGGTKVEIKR" readoutname=EC50 readoutunits=nM quantitativereadout=5.3
binder="Antibody D (antibody, human IgG1, kappa, L234A L235A, V domains shown) VH: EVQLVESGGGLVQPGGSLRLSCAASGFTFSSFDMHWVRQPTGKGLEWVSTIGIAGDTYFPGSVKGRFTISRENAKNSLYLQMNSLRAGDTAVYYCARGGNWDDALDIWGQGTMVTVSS VL: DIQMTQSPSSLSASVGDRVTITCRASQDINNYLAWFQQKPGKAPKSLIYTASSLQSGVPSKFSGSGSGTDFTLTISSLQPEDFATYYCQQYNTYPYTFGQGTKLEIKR" readoutname=EC50 readoutunits=nM quantitativereadout=0.3
binder="Antibody A4 (antibody, human IgG1, kappa, L234A L235A, V domains shown) VH: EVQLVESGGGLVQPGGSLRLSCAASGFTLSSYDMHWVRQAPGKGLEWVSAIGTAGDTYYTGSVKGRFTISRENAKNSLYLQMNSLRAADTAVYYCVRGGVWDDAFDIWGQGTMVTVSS VL: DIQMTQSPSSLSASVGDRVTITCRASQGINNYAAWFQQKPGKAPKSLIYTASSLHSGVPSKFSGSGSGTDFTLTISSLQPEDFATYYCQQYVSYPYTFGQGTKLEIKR" readoutname=EC50 readoutunits=nM quantitativereadout=0.7
binder="Anti-SIRPα antibody KWAR23 (antibody, V domains shown) VH: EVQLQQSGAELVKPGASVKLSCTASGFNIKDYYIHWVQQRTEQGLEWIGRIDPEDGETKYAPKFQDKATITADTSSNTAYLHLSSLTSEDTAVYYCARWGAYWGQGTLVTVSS VL: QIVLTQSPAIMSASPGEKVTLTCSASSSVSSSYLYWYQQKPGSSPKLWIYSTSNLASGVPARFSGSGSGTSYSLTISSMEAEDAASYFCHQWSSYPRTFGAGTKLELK" readoutname=EC50 readoutunits=nM quantitativereadout=0.3
